The origin of these recorded values is the supplement of paper PMC13386468.

studyTarget: UniProt O96212
runDescription: IC50 for competition of protein binding to Kinobeads;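 note: native unpurified kinases from lysate captured on beads bearing immobilized kinase inhibitors, with bead-bound kinases quantified by mass spectrometry across compound doses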
setupConditions: assay detail: Kinobeads competition in P. falciparum blood-stage lysate
measurementKind: IC50

The measured IC50 that O=c1[nH]c2ccc(Cl)cc2c(NC2CN3CCC2CC3)c1-c1nc2ccccc2[nH]1 (stereo unspecified) [CHIR-124] showed for UniProt O96212 is > 20 µM

* * *

studyTarget: UniProt Q8ILV2
runDescription: IC50 for competition of protein binding to Kinobeads
setupConditions: assay detail: Kinobeads competition in P. falciparum blood-stage lysate
measurementKind: IC50

Please fill in: IC50 reported for O=c1[nH]c2ccc(Cl)cc2c(NC2CN3CCC2CC3)c1-c1nc2ccccc2[nH]1 (stereo unspecified) [CHIR-124] = > 20 µM
